Cited source for all entries: PubChem BioAssay (NCI)

test system: SF-539 CNS; experiment: NCI-60 one-dose screen, 48 h (100 = growth as untreated, 0 = no growth, -100 = all killed); conditions: 10 µM unless noted
The panel holds about 83,000 compounds, 20% with a hit somewhere; the sample as a whole holds those more often.
endpoint-label: growth (%)
One number for each entry, in %.

Below, each entry is followed by its recorded growth result.
>  <compound>
COC(=O)[C@@H](C)C[C@H](Cc1ccccc1)NC(=O)c1cccc([C@@H](C[C@H](C(C)C)N(C)C(=O)[C@@H](NC(=O)[C@H]2CCCCN2C)C(C)C)OC(C)=O)n1

>  <test-system>
SF-539 CNS

>  <growth (%)>
2.03

$$$$
>  <compound>
CC(=O)OC1CCC2C3CCC4=C/C(=N/OC(=O)c5ccc(N(CCCl)CCCl)cc5)CCC4(C)C3CC(C)C12 (stereo not drawn)

>  <test-system>
SF-539 CNS

>  <growth (%)>
75.6

$$$$

// next entry
For `COc1ccc(Nc2ccc([N+](=O)[O-])cc2[N+](=O)[O-])cc1CN(CCCl)CCCl` the compound record lists growth as 15.9
